Test: Fluorescence of the adducts with butylamine in acetonitrile
Assay type: physicochemical
Set-up: unit not given here
Conditions: Bioconjugated molecule (BuNH2) in CH3CN; emission minus excitation wavelength
Result type: Δ Stokes

Compound: COc1ccccc1C(=O)C1=C2C=C3CC(C)OC=C3C(=O)C2(C)OC1=O (stereo not shown) [If]
Measurement: 120
//
Compound: COc1ccc(C(=O)C2=C3C=C4CC(C)OC=C4C(=O)C3(C)OC2=O)cc1 (stereo not shown) [Ib]
Measurement: 134
//
Compound: CC(C(=O)C1=C2C=C3CC(C)(C)OC=C3C(=O)C2(C)OC1=O)C(=O)c1ccccc1 (stereo not shown) [Im]
Measurement: 102
//
Compound: COc1ccc(/C(O)=C/C(=O)C2=C3C=C4CC(C)(C)OC=C4C(=O)C3(C)OC2=O)cc1 (stereo not shown) [Ij]
Measurement: 98
//
Compound: CC1CC2=CC3=C(C(=O)c4ccco4)C(=O)OC3(C)C(=O)C2=CO1 (stereo not shown) [Ic]
Measurement: 128
//
Compound: COc1ccc(C(=O)C(C)C(=O)C2=C3C=C4CC(C)(C)OC=C4C(=O)C3(C)OC2=O)cc1 (stereo not shown) [Il]
Measurement: 90
//
Compound: COc1ccc(C(=O)C2=C3C=C4CC(C)(C)OC=C4C(=O)C3(C)OC2=O)cc1 (stereo not shown) [Ih]
Measurement: 130
//
Compound: CC1CC2=CC3=C(C(=O)c4ccccc4)C(=O)OC3(C)C(=O)C2=CO1 (stereo not shown) [Ia]
Measurement: 113
//
Compound: CC1(C)CC2=CC3=C(C(=O)/C=C(\O)c4ccc5ccccc5c4)C(=O)OC3(C)C(=O)C2=CO1 (stereo not shown) [Io]
Measurement: 89
//
Compound: COCCOCCOc1ccc(C(=O)C2=C3C=C4CC(C)OC=C4C(=O)C3(C)OC2=O)cc1 (stereo not shown) [Ie]
Measurement: 137
//
Compound: CC1(C)CC2=CC3=C(/C(O)=C/C(=O)c4ccc(Cl)nc4)C(=O)OC3(C)C(=O)C2=CO1 (stereo not shown) [In]
Measurement: 87
//
Compound: C/C=C/C=C/C=C/C(=O)/C=C(\O)C1=C2C=C3C[C@@H](CO)OC=C3C(=O)[C@@]2(C)OC1=O [epicocconone, reference compound]
Measurement: 95
//
Compound: CC1CC2=CC3=C(C(=O)c4ccc5ccccc5c4)C(=O)OC3(C)C(=O)C2=CO1 (stereo not shown) [Id]
Measurement: 106
//
Compound: CC1CC2=CC3=C(C(=O)c4ccccc4O)C(=O)OC3(C)C(=O)C2=CO1 (stereo not shown) [Ig]
Measurement: 134
//
Compound: CC1(C)CC2=CC3=C(C(=O)/C=C(\O)c4ccccc4)C(=O)OC3(C)C(=O)C2=CO1 (stereo not shown) [Ik]
Measurement: 94
//
Compound: COc1ccc(/C(O)=C/C(=O)C2=C3C=C4CC(C)OC=C4C(=O)C3(C)OC2=O)cc1 (stereo not shown) [Ii]
Measurement: 99

---

Test: Fluorescence of the adducts with butylamine in acetonitrile
Format: physicochemical
Conditions: Bioconjugated molecule (BuNH2) in CH3CN; fluorescence intensity
Result type: Intensity normalized to 50 μM

Compound: COc1ccc(C(=O)C2=C3C=C4CC(C)(C)OC=C4C(=O)C3(C)OC2=O)cc1 (stereo not drawn)
Intensity normalized to 50 μM: 155

(a) CC1CC2=CC3=C(C(=O)c4ccc5ccccc5c4)C(=O)OC3(C)C(=O)C2=CO1 (stereo not drawn)
(b) COc1ccc(/C(O)=C/C(=O)C2=C3C=C4CC(C)(C)OC=C4C(=O)C3(C)OC2=O)cc1 (stereo not drawn)
Which value of Intensity normalized to 50 μM is greater, the one for a or the one for b ? # reply format: chosen label
b
(b: 3988, a: 173)

---

Assay: Absorbance of the adducts with butylamine in acetonitrile
Format: physicochemical
Details: Bioconjugated molecule (BuNH2) in CH3CN; shorter-wavelength absorption maximum
Result type: λ UV (nm), first maximum

Molecule: COc1ccc(C(=O)C2=C3C=C4CC(C)OC=C4C(=O)C3(C)OC2=O)cc1 (centres unmarked)
Reading unit: nm
λ UV (nm), first maximum: 351
--
Molecule: COCCOCCOc1ccc(C(=O)C2=C3C=C4CC(C)OC=C4C(=O)C3(C)OC2=O)cc1 (centres unmarked)
Reading unit: nm
λ UV (nm), first maximum: 349
--
Molecule: CC1CC2=CC3=C(C(=O)c4ccccc4O)C(=O)OC3(C)C(=O)C2=CO1 (centres unmarked)
Reading unit: nm
λ UV (nm), first maximum: 350
--
Molecule: CC1(C)CC2=CC3=C(C(=O)/C=C(\O)c4ccc5ccccc5c4)C(=O)OC3(C)C(=O)C2=CO1 (centres unmarked)
Reading unit: nm
λ UV (nm), first maximum: 364
--
Molecule: COc1ccc(/C(O)=C/C(=O)C2=C3C=C4CC(C)OC=C4C(=O)C3(C)OC2=O)cc1 (centres unmarked)
Reading unit: nm
λ UV (nm), first maximum: 366
--
Molecule: CC1(C)CC2=CC3=C(C(=O)/C=C(\O)c4ccccc4)C(=O)OC3(C)C(=O)C2=CO1 (centres unmarked)
Reading unit: nm
λ UV (nm), first maximum: 365
--
Molecule: COc1ccc(/C(O)=C/C(=O)C2=C3C=C4CC(C)(C)OC=C4C(=O)C3(C)OC2=O)cc1 (centres unmarked)
Reading unit: nm
λ UV (nm), first maximum: 366
--
Molecule: CC1CC2=CC3=C(C(=O)c4ccccc4)C(=O)OC3(C)C(=O)C2=CO1 (centres unmarked)
Reading unit: nm
λ UV (nm), first maximum: 351
